Each recorded value in this set is attributed to PubChem BioAssay (NCI).

- Tested on: ACHN renal
- measurement notes: NCI-60 one-dose screen, 48 h
- assay context: 10 µM unless noted
This is part of a sample that, as a whole, favours compounds with a hit. Of some 83,000 tested, about 20% had one in any assay. Calls of active or inactive are those of the source. The calls were made as follows: active = growth percent below 10; inactive = the rest.
Respond using exactly one of the listed classes: active, inactive

Task item: Dear colleague, could you share the recorded outcome for COc1ccc(-c2cc(-c3cccc4ccccc34)n3c(n2)nc2ccccc23)cc1 when you have a moment?
Reply: inactive

Task item: Could you check what this test reported for N#Cc1c(-c2ccccc2)cc(-c2c[nH]c3ccccc23)nc1-c1c[nH]c2ccccc12 ?
Reply: inactive

Task item: For this molecule, state the assay outcome: Oc1ccccc1/C=N/Nc1nc(N/N=C/c2ccccc2O)nc(N2CCOCC2)n1
Reply: inactive

Task item: What did this assay record as the result for C#CCOc1ccccc1C(Nc1ccccc1)c1nnnn1C1CCCCC1 (stereo not given) ?
Reply: inactive

Task item: Assay outcome for COc1cc(C(=O)C[n+]2ccc3ccccc3c2)cc(OC)c1OC : what was it?
Reply: inactive

Task item: // return assay outcome for O=c1oc2ccc(-c3ccc(F)cc3F)cc2c(=O)n1-c1cccc(C(F)(F)F)c1
Reply: active

Task item: Which outcome did this test record for the molecule O=C(/C=C/Nc1ccc(S(=O)(=O)O)cc1)c1ccc(F)cc1 ?
Reply: inactive

Task item: Per the records of this test, what outcome belongs to COc1ccc(-c2oc3cc(O)cc(O)c3c(=O)c2OC)cc1O ?
Reply: inactive

Task item: Call for entry O=S(=O)(Nc1ccc(-c2nc(-c3cccc(O)c3)c(-c3ccnc(Br)c3)[nH]2)cc1)c1ccccc1 :
Reply: inactive

Task item: Recorded test call requested for COc1ccc(CCN2C(=O)/C(=C/c3nc(CO)cs3)SC2=S)cc1
Reply: inactive

Task item: What outcome does the record of this test show for O=C(Nc1cccc(Cl)c1)Nc1nc2ccc([N+](=O)[O-])cc2s1 ?
Reply: active

Task item: Can you look up the reported call for Cc1cc(Cl)cc(NS(=O)(=O)c2ccc(-c3cnc(C4CC4)o3)cc2)c1 for me?
Reply: inactive

Task item: Check the results log: what was the call for O=C(Nc1cc(Cl)cc(Cl)c1)Nc1nc2ccc([N+](=O)[O-])cc2s1 ?
Reply: active

Task item: Outcome? Nc1n[nH]c2cccc(C#Cc3cccc(NC(=O)c4cccc(OC(F)(F)F)c4)c3)c12
Reply: inactive

Task item: Answer briefly: the call reported for C#C[C@]1(O)CC[C@H]2[C@@H]3CC=C4c5sc(-c6ccccn6)nc5CC[C@]4(C)[C@H]3CC[C@@]21C in this assay.
Reply: inactive

Task item: Can you look up the reported call for CCOC(=O)c1nn(-c2ccccc2)c(=O)c2c(N)c(C#N)c(-c3cccs3)cc12 for me?
Reply: inactive

Task item: I would be grateful if you could indicate the recorded call for N/C(=N\OC(=O)CSc1nc2ccccc2s1)c1ccc(Cl)cc1 .
Reply: inactive

Task item: Hi, sorry to bother you, what did the test record for O=C(CCCCCCN1CC(=O)N2[C@@H](c3cccc(Br)c3)c3[nH]c4ccccc4c3C[C@H]2C1=O)NO ?
Reply: inactive

Task item: How was COc1cc(-c2noc(C[C@@H](NC(=O)OCc3ccccc3)C(C)C)n2)cc(OC)c1OC classified in this test?
Reply: inactive

Task item: I would be grateful if you could indicate the recorded call for CC1=C2C(=C[C@@](C)(COS(N)(=O)=O)[C@@H]2O)C(=O)[C@](C)(O)C12CC2 .
Reply: inactive
